Experiment: Induction of nitric oxide release at pH 7.4 PBS after 1.5 hrs
Format: physicochemical
Conditions: buffer, pH 7.4, 1.5 h
readout: Activity (%)

1) CC(=O)OCO/N=[N+](\[O-])N(C)CCOC(=O)c1cc(-c2ccccc2)n(-c2ccc(S(C)(=O)=O)cc2)n1 ... 7.7
2) CC(=O)OCO/N=[N+](\[O-])N(C)CCOC(=O)c1cc(-c2ccc(C)cc2)n(-c2ccc(S(C)(=O)=O)cc2)n1 ... 9.2

a: CC(=O)OCO/N=[N+](\[O-])N(C)CCOC(=O)c1cc(-c2ccc(F)cc2)n(-c2ccc(S(C)(=O)=O)cc2)n1
b: CN(CCO)/[N+]([O-])=N/[O-].[Na+]
So which one has the bigger Activity here, a or b ? Please identify the chosen entry by its label.
b

###

System: Serum
Assay: Induction of nitric oxide release in rat serum at pH 7.4 after 1.5 hrs
Type: cell-free
Settings: pH 7.4, 1.5 h
readout: Activity (%)

1) CN(CCO)/[N+]([O-])=N/[O-].[Na+] ... 85
2) CC(=O)OCO/N=[N+](\[O-])N(C)CCOC(=O)c1cc(-c2ccc(C)cc2)n(-c2ccc(S(C)(=O)=O)cc2)n1 ... 70.9
3) CC(=O)OCO/N=[N+](\[O-])N(C)CCOC(=O)c1cc(-c2ccccc2)n(-c2ccc(S(C)(=O)=O)cc2)n1 ... 67.5
4) CC(=O)OCO/N=[N+](\[O-])N(C)CCOC(=O)c1cc(-c2ccc(F)cc2)n(-c2ccc(S(C)(=O)=O)cc2)n1 ... 73.6
